Value source: ChEMBL document CHEMBL1153318

Assay target: Serine/threonine-protein kinase PLK1 (Homo sapiens)
Sequence (P53350 whole entry): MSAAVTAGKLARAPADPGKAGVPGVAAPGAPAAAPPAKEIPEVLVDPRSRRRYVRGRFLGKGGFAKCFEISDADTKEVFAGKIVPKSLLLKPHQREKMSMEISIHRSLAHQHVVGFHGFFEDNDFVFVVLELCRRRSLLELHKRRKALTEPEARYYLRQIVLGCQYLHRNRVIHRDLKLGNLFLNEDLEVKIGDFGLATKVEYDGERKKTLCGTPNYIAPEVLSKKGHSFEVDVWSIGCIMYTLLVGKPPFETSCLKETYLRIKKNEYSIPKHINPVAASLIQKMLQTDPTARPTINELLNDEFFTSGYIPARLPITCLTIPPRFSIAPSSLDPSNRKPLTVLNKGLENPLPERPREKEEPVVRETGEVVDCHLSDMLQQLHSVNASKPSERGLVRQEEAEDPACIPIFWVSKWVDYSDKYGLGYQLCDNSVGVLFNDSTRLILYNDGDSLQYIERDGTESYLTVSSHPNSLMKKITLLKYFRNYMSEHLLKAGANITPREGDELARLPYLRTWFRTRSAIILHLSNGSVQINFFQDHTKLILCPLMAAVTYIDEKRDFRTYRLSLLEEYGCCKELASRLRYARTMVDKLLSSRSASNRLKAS
pIC50: −log10 of the molar value.
Measurement type: pIC50

* CC(Oc1cc(-n2cnc3ccc(OCC4CCN(C)CC4)cc32)sc1C(N)=O)c1ccccc1Cl (single isomer, unassigned) [GSK-571989A] | 8.22
* CC(Oc1cc(-n2cnc3ccc(OCC4CCN(C)CC4)cc32)sc1C(N)=O)c1ccccc1C(F)(F)F (single isomer, unassigned) [GSK-326090A] | 8.15
* CC(Oc1cc(-n2cnc3ccc(OC[C@@H](O)CO)cc32)sc1C(N)=O)c1ccccc1Cl (single isomer, unassigned) [GSK-978744A] | 9.00
* COc1ccc2ncn(-c3cc(O[C@H](C)c4ccccc4Cl)c(C(N)=O)s3)c2c1 [GSK-317314A] | 9.00
* COc1ccc2ncn(-c3cc(O[C@H](C)c4ccccc4C(F)(F)F)c(C(N)=O)s3)c2c1 [GSK-317315A] | 8.52

* * *

Experiment: Protein binding in human plasma at 2000 ng/mL after 6 hrs by equilibrium dialysis method
Type: ADME, cell-free
Settings: read-out: PPB (converted)
Binarize fraction unbound at 6 h, 2000 ng/mL at 0.02; below is Met, at or above is Not met.

* CC(Oc1cc(-n2cnc3ccc(O[C@H]4CCCN(C)CC4)cc32)sc1C(N)=O)c1ccccc1Cl (single isomer, unassigned) | Not met
* COc1ccc2ncn(-c3cc(O[C@H](C)c4ccccc4C(F)(F)F)c(C(N)=O)s3)c2c1 [GSK-317315A] | Met
* C[C@@H](Oc1cc(-n2cnc3ccc(OC[C@H](O)CN4CCCC4)cc32)sc1C(N)=O)c1ccccc1Cl (single isomer, unassigned) | Not met
* CC(Oc1cc(-n2cnc3ccc(OC4CCN(C)CC4)cc32)sc1C(N)=O)c1ccccc1Cl (single isomer, unassigned) [GSK-579289A] | Not met
* CC(Oc1cc(-n2cnc3ccc(OCC4CCN(C)CC4)cc32)sc1C(N)=O)c1ccccc1Cl (single isomer, unassigned) [GSK-571989A] | Not met

* * *

Tested on: SK-OV-3
Experiment: Antiproliferative activity against human SKOV3 cells after 72 hrs by luminescence-based cell viability assay
Type: functional
Settings: SK-OV-3, 72 h
Measurement type: IC50 (nM)

• CC(Oc1cc(-n2cnc3ccc(OC4CCN(C)CC4)cc32)sc1C(N)=O)c1ccccc1Cl (single isomer, unassigned) [GSK-579289A] = 11
• CC(Oc1cc(-n2cnc3ccc(OC4CCN(C)CC4)cc32)sc1C(N)=O)c1ccccc1C(F)(F)F (single isomer, unassigned) = 32

* * *

System: A549
Experiment: Antiproliferative activity against human A549 cells after 72 hrs by luminescence-based cell viability assay
Type: functional
Settings: A549, 72 h
pIC50: −log10 of the molar value.
Measurement type: pIC50

• CC(Oc1cc(-n2cnc3ccc(OC4CCN(C)CC4)cc32)sc1C(N)=O)c1ccccc1Cl (single isomer, unassigned) [GSK-579289A] = 7.96
• CC(Oc1cc(-n2cnc3ccc(OC4CCN(C)CC4)cc32)sc1C(N)=O)c1ccccc1C(F)(F)F (single isomer, unassigned) = 7.85
